Source: the supplement of paper PMC11908140

# 8OG:A repair function score per entry
B1: library; numbered along this chain (parent)
chain: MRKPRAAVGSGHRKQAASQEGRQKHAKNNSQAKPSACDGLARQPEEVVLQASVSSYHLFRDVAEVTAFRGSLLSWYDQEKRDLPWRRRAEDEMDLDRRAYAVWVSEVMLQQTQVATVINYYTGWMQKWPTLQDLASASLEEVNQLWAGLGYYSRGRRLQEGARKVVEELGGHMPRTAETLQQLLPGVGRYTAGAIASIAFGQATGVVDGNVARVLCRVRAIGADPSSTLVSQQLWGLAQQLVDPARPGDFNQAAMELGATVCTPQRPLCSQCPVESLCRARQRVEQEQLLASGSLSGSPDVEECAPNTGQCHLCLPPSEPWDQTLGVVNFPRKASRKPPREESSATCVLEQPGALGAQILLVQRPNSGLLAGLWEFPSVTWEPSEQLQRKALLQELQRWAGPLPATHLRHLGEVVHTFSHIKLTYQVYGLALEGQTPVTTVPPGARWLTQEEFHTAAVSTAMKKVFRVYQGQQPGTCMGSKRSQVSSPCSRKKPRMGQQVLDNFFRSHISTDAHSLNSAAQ

variants of: B1; experiment: 8OG:A repair function score (normalized; synonymous = 0, nonsense = -1) (normalized log-likelihood score); higher = more repair activity (WT-like); details: with 8OG:A DNA repair reporter (GFP) in HEK-293 MUTYH KO cells;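 note: cells sorted at 72 h after reporter transfection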

As a guide, the following entries are already answered.
[
  {
    "Variant String": "W146E",
    "Measurement Kind": "8OG:A repair function score",
    "Assay Value": -1.03
  },
  {
    "Variant String": "L392R",
    "Measurement Kind": "8OG:A repair function score",
    "Assay Value": -1.02
  },
  {
    "Variant String": "P338F",
    "Measurement Kind": "8OG:A repair function score",
    "Assay Value": -0.101
  },
  {
    "Variant String": "S483N",
    "Measurement Kind": "8OG:A repair function score",
    "Assay Value": 0.0224
  },
  {
    "Variant String": "G309P",
    "Measurement Kind": "8OG:A repair function score",
    "Assay Value": -0.0923
  }
]

Quick note, 8OG:A repair function score for N251S landed at -0.903

8OG:A repair function score in this record for L40A : 0.139

So for V242R , the logged 8OG:A repair function score turned out to be -0.886

The reported value for R219D in terms of 8OG:A repair function score is -0.946

Entry L169H — recorded 8OG:A repair function score = -0.0549

Entry under test: A431I . Its 8OG:A repair function score was 0.0332

The reported 8OG:A repair function score of the variant W128R was -0.696

# 8OG:A repair function score (variant: V415A ) is 0.0175
